- Protocol: physchem
- Assay setup: buffer, pH 6.5
The label 1 (yes) is reserved for logD strictly under 2; 0 (no) covers values equal to or above it.

Inquiry: Answer whether the compound Cc1cccc(C)c1Sc1nn(-c2ccc(C(=O)O)cc2)c2ccc(C(=O)N(C)C)cc12 has logD strictly less than 2
Reply text: 1 (yes)

Inquiry: Try this compound next: CCS(=O)(=O)c1ccc(CC(=O)Nc2nc(-c3cccc(Cl)c3)c(C(=O)c3ccccc3Cl)s2)cc1
Reply text: 0 (no)

Inquiry: Try this compound next: O=C(O)c1ccc(-n2nc(Sc3c(Cl)cccc3Cl)c3cc(C(=O)N4CC(F)(F)C4)ccc32)cc1
Reply text: 0 (no)

Inquiry: Try this compound next: CN(C)C(=O)c1ccc2c(-c3ccc(C(=O)O)cc3)nn(C(=O)c3c(Cl)cccc3Cl)c2c1
Reply text: 1 (yes)

Inquiry: Try this compound next: O=C(O)c1ccc(-n2nc(Oc3c(Cl)cccc3Cl)c3ccccc32)c(F)c1
Reply text: 0 (no)

====

Target chain: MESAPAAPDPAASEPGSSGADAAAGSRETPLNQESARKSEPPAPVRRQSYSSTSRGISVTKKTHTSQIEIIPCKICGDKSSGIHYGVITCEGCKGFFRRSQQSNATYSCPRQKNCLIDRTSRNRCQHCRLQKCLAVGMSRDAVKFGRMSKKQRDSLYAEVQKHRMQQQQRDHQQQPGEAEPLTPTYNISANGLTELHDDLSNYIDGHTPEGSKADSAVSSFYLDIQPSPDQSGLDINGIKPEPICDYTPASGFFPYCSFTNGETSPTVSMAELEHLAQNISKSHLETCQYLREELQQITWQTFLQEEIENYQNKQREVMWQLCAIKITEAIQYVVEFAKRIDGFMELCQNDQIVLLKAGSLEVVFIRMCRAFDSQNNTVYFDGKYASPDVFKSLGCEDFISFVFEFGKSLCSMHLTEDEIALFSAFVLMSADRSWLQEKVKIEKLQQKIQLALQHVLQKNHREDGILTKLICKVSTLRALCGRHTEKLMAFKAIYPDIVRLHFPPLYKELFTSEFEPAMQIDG
Property: IC50

Inquiry: // returns reported IC50 for input Cc1cccc(Cl)c1Oc1nn(-c2ccc(C(=O)O)cc2)c2ccc(C(=O)N(C)C)cc12
Reply text: > 10 µM

====

What follows is a record of IC50 for UniProt:P51449.
Sequence (P51449 whole entry): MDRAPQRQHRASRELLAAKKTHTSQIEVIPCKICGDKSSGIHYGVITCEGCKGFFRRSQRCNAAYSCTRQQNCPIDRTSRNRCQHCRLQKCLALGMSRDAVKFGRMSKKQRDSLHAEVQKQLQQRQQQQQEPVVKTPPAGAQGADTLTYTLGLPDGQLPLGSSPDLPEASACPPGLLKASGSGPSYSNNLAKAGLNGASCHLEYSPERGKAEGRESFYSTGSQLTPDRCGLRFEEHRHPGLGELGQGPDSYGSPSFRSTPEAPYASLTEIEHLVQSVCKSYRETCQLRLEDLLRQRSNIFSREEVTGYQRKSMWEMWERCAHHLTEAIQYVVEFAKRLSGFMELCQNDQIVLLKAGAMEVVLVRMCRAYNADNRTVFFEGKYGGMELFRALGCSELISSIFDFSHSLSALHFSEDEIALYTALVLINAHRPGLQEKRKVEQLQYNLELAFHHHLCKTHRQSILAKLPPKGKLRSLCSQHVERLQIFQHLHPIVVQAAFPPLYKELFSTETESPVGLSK
Expressed in µM, but write only the number.

Inquiry: // returns reported IC50 for input CN(C)C(=O)c1ccc2c(-c3ccc(C(=O)O)cc3)nn(C(=O)c3c(Cl)cccc3Cl)c2c1
Reply text: 0.054

Inquiry: Try this compound next: CN(C)C(=O)c1ccc2c(c1)c(Sc1c(Cl)cccc1Cl)nn2-c1ccc(C(=O)O)cc1
Reply text: 0.59

Inquiry: Try this compound next: O=C(O)c1ccc(-n2nc(Oc3c(Cl)cccc3Cl)c3ccccc32)c(F)c1
Reply text: 0.24

Inquiry: Try this compound next: O=C(O)c1ccc(-n2nc(Nc3c(Cl)cccc3Cl)c3ccccc32)cc1
Reply text: 2.5

Inquiry: Try this compound next: O=C(O)c1ccc(-c2nn(C(=O)c3c(Cl)cccc3Cl)c3ccccc23)cc1
Reply text: 0.06

Inquiry: Try this compound next: O=C(O)c1ccc(-n2nc([S+]([O-])c3c(Cl)cccc3Cl)c3ccccc32)cc1 (stereo not drawn)
Reply text: 6.2

Inquiry: Try this compound next: CN(C)C(=O)c1ccc2c(c1)c(Sc1cccc(Cl)c1Cl)nn2-c1ccc(C(=O)O)cc1
Reply text: 5.9

Inquiry: Try this compound next: O=C(O)c1ccc(-n2nc(Sc3c(Cl)cccc3Cl)c3cc(C(=O)N4CCCC4)ccc32)cc1
Reply text: 2.6
